- tgt: A2 receptor (Rattus norvegicus, UniProt P30543)
- Construct: using membranes from rat brain striatum; from tissue; host or cells: rat brain striatum membranes
- Sequence (P30543 whole entry): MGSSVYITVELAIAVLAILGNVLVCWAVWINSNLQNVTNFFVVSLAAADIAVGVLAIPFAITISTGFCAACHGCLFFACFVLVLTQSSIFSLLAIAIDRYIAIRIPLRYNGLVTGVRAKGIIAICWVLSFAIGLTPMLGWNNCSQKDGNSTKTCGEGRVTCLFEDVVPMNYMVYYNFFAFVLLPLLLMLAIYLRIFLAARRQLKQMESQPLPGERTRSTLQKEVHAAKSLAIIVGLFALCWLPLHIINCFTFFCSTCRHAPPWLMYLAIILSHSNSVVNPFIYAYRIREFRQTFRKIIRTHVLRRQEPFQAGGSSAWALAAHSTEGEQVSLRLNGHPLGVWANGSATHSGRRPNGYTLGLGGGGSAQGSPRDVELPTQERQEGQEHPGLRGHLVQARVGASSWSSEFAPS
- measurement_notes: A2 adenosine receptor binding, displacement of 3H-CGS 21680, rat brain striatum membranes
- condition_info: 3H-CGS 21680 displacement, rat brain striatum membranes, 25° C., 90 minutes; read-out: Adenosine Receptor Binding Activity/IC50 (nM) A2
IC50 under 100 nM gets true (1), anything at or over 100 nM gets false (0).

{"compound": "CCNC(=O)C1CC(n2cnc3c(NCCc4cccs4)ncnc32)C(O)C1O (single isomer, unassigned; (-))", "assigned_class": "true (1)"}
{"compound": "CCNC(=O)C1CC(n2cnc3c(N[C@H](C)Cc4ccc(Cl)s4)ncnc32)C2OC(C)(C)OC12 (single isomer, unassigned; (-))", "assigned_class": "false (0)"}
{"compound": "CCNC(=O)[C@H]1C[C@@H](n2cnc3c(NC(Cc4cccs4)C(C)C)ccnc32)[C@H](O)[C@@H]1O (some centres unmarked)", "assigned_class": "true (1)"}
{"compound": "C[C@H](Cc1sccc1Cl)Nc1ncnc2c1ncn2[C@@H]1O[C@H](CO)[C@@H](O)[C@H]1O", "assigned_class": "true (1)"}
{"compound": "CCNC(=O)[C@H]1C[C@@H](n2cnc3c(N[C@H](CC)Cc4ccc(Cl)s4)ccnc32)[C@H](O)[C@@H]1O", "assigned_class": "false (0)"}
{"compound": "CCNC(=O)C1CC(n2cnc3c(NC(CC)Cc4sccc4Cl)ccnc32)C(O)C1O (single isomer, unassigned)", "assigned_class": "true (1)"}
{"compound": "CO[C@@H]1[C@H](O)[C@@H](CO)O[C@H]1n1cnc2c(N[C@@H]3CC=CC[C@H]3c3cccs3)ncnc21 (relative stereo)", "assigned_class": "false (0)"}
{"compound": "OC[C@H]1O[C@@H](n2cnc3c(N[C@@H]4CC=CC[C@H]4c4ccsc4)ncnc32)[C@H](O)[C@@H]1O (relative stereo)", "assigned_class": "false (0)"}
{"compound": "OC[C@H]1O[C@@H](n2cnc3c(NCc4nc(-c5ccccc5)cs4)ncnc32)[C@H](O)[C@@H]1O", "assigned_class": "false (0)"}
{"compound": "CCC(Cc1sccc1Cl)Nc1ncnc2c1ncn2[C@@H]1O[C@H](CO)[C@@H](O)[C@H]1O (some centres unmarked)", "assigned_class": "true (1)"}
{"compound": "CO[C@@H]1[C@H](O)[C@@H](CO)O[C@H]1n1cnc2c(N[C@H](C)Cc3ccc(Cl)s3)ncnc21", "assigned_class": "false (0)"}
{"compound": "CCNC(=O)[C@H]1C[C@@H](n2cnc3c(NC(CC)Cc4sccc4Cl)ccnc32)[C@H](O)[C@@H]1O (some centres unmarked)", "assigned_class": "false (0)"}
{"compound": "OC[C@H]1O[C@@H](n2cnc3c(NCCSc4nc5ccccc5s4)ncnc32)[C@H](O)[C@@H]1O", "assigned_class": "false (0)"}
{"compound": "CO[C@@H]1[C@H](O)[C@@H](CO)O[C@H]1n1cnc2c(N[C@H](C)Cc3sccc3Cl)ncnc21", "assigned_class": "false (0)"}
